experiment: MRTinfinity in mouse at 10 mg/kg, po; type: ADME, organism-based; conditions: in vivo
Value Type: MRT inf (h)
Field format: number, assumed h, no unit text.

The molecule listed as Cc1ccc(NC(=O)c2cccc(C(F)(F)F)c2)cc1N1Cc2cnc(N)nc2N(C)C1=O has a reported MRT inf of 18.1

====

assay: Metabolic stability in mouse liver microsomes assessed as compound remaining at 1 uM after 30 mins; type: ADME, microsome; settings: read-out: Stability
Doc: threshold 60% (exclusive). Items with remaining at 0.5 h, 1 µM beneath it return 1; others return -1.

Given CCN1CCN(c2ccc(Nc3ncc4c(n3)N(C)C(=O)N(c3cc(NC(=O)c5cccc(C(F)(F)F)c5)ccc3C)C4)cn2)CC1 , is recorded remaining at 0.5 h, 1 µM strictly lower than 60%?
1

Given CCN1CCN(C(=O)c2ccc(Nc3ncc4c(n3)N(C)C(=O)N(c3cc(NC(=O)c5cccc(C(F)(F)F)c5)ccc3C)C4)cn2)CC1 , is recorded remaining at 0.5 h, 1 µM strictly lower than 60%?
1

Given Cc1ccc(Nc2ncc3c(n2)N(C)C(=O)N(c2cc(NC(=O)c4cccc(C(F)(F)F)c4)ccc2C)C3)cn1 , is recorded remaining at 0.5 h, 1 µM strictly lower than 60%?
-1

Given Cc1ccc(NC(=O)c2cccc(C(F)(F)F)c2)cc1N1Cc2cnc(N)nc2N(C)C1=O , is recorded remaining at 0.5 h, 1 µM strictly lower than 60%?
-1

Given CCN1CCN(c2ccc(Nc3ncc4c(n3)N(C)C(=O)N(c3cc(NC(=O)c5cccc(C(F)(F)F)c5)ccc3C)C4)cc2)CC1 , is recorded remaining at 0.5 h, 1 µM strictly lower than 60%?
1

====

test: Tmax in mouse at 10 mg/kg, po; assay type: ADME, organism-based; details: in vivo
Value Type: Tmax (h)
Field format: number, assumed h, no unit text.

The compound listed as Cc1ccc(NC(=O)c2cccc(C(F)(F)F)c2)cc1N1Cc2cnc(N)nc2N(C)C1=O has a reported Tmax of 2.7

====

target: CYP2D6 (Homo sapiens, UniProt P10635); experiment: Inhibition of CYP2D6 (unknown origin) assessed as activity remaining at 10 uM relative to control; format: ADME; details: read-out: Activity
Sequence (P10635 whole entry): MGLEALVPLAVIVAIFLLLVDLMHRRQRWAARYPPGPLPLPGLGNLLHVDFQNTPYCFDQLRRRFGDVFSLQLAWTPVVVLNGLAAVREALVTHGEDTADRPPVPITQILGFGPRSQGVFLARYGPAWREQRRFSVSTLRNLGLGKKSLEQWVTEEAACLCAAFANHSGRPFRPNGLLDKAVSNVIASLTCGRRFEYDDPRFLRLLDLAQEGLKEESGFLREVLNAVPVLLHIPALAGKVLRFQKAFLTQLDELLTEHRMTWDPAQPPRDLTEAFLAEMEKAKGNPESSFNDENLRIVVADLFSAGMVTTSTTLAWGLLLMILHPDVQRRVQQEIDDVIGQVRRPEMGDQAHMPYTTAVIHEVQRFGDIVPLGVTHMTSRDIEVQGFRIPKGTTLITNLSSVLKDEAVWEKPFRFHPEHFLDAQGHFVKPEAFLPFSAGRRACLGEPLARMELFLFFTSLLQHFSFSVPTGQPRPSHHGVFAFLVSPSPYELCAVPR
Value Type: activity at 10 µM (%)
Field format: number, assumed %, no unit text.

Cc1ccc(NC(=O)c2cccc(C(F)(F)F)c2)cc1N1Cc2cnc(Nc3cnn(C)c3)nc2N(C)C1=O : 78.8
Cc1ccc(Nc2ncc3c(n2)N(C)C(=O)N(c2cc(NC(=O)c4cccc(C(F)(F)F)c4)ccc2C)C3)cn1 : 68.4
CCN1CCN(c2ccc(Nc3ncc4c(n3)N(C)C(=O)N(c3cc(NC(=O)c5cccc(C(F)(F)F)c5)ccc3C)C4)cc2)CC1 : 79.8
Cc1ccc(NC(=O)c2cccc(C(F)(F)F)c2)cc1N1Cc2cnc(N)nc2N(C)C1=O : 82.2
CCN1CCN(c2ccc(Nc3ncc4c(n3)N(C)C(=O)N(c3cc(NC(=O)c5cccc(C(F)(F)F)c5)ccc3C)C4)cn2)CC1 : 68
Cc1ccc(Nc2ncc3c(n2)N(C)C(=O)N(c2cc(NC(=O)c4ccc(CN5CCC(N(C)C)C5)c(C(F)(F)F)c4)ccc2C)C3)cn1 (centres undefined) : 4.9
CC(=O)N1CCN(c2ccc(Nc3ncc4c(n3)N(C)C(=O)N(c3cc(NC(=O)c5cccc(C(F)(F)F)c5)ccc3C)C4)cn2)CC1 : 83.1
Cc1cc(Nc2ncc3c(n2)N(C)C(=O)N(c2cc(NC(=O)c4cccc(C(F)(F)F)c4)ccc2C)C3)n(C)n1 : 72

Here CCN1CCN(C(=O)c2ccc(Nc3ncc4c(n3)N(C)C(=O)N(c3cc(NC(=O)c5cccc(C(F)(F)F)c5)ccc3C)C4)cn2)CC1 was tested on CYP2D6 (Homo sapiens, UniProt P10635), and its activity at 10 µM came to 32.8
